target.under.test: T1, Caspase-2 (UniProt P42575)
T1 sequence (looked up): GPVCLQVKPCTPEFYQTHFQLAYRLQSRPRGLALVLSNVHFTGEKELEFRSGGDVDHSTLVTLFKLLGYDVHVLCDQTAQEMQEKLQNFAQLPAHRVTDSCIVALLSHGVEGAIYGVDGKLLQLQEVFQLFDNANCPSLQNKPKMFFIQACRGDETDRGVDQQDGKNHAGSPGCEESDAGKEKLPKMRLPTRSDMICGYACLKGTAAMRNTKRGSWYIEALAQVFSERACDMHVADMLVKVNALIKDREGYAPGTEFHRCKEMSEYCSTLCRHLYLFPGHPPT
experiment.summary: cell-based or functional assay
Numbered stars: 1 amine (or outer) side, 2 acyl side, 3 side chain; on linkers, the order of the positions; unused ones are H or OH. Square brackets hold non-standard residues; d marks the D form. * marks the point of attachment. AAsp = aza-Asp, O=C(N(CC(=O)[*:3])N[*:1])[*:2]; CH:CH‑COOEt = CCOC(=O)/C=C/*; Cbz = O=C(OCc1ccccc1)*
measured.endpoint: k2 (M⁻¹ s⁻¹)
Field: numeric (M⁻¹ s⁻¹). Do not append units.

Qu. Which k2 value is on record for Cbz-VEV[AAsp]-{CH:CH‑COOEt} (SMILES CCOC(=O)/C=C/C(=O)N(CC(=O)O)NC(=O)[C@@H](NC(=O)[C@H](CCC(=O)O)NC(=O)[C@@H](NC(=O)OCc1ccccc1)C(C)C)C(C)C) [Cbz-Val-Glu-Val-AAsp-CH═CH-COOEt] ?
Ans. 115

Qu. Which k2 value is on record for Cbz-IET[AAsp]-{CH═CH‑CONHCH2CH2Ph} [Cbz-Ile-Glu-Thr-AAsp-CH═CH-CONHCH2CH2Ph] ?
Ans. 30

Qu. Which k2 value is on record for Cbz-IET[AAsp]-{CH═CH‑CONHPh} [Cbz-Ile-Glu-Thr-AAsp-CH═CH-CONHPh] ?
Ans. 365
